Each record here notes measured inhibition.
- measurement-target: Uracil-DNA glycosylase (Homo sapiens);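 note: UNG excision on a quenched double-stranded DNA oligo probe, with APE1 added for strand incision and turnover, read as fluorescence at 594 nm as strands separate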
- study-conditions: Compound Concentration 10.0 uM, Hit No
- Description: Inhibition of UNG by quantifying inhibition of UNG-mediated cleavage and dissociation of quenched duplex DNA oligonucleotides, measured as fluorescence at 594 nm. To generate a functional strand incision and increase turn-over this assay is coupled to APE1.
quantity-name: inhibition (%)

[[record]]
compound = "COc1cc(OC)c(NC(=O)c2ccc(Cc3cc4c(cc3C)C(C)(C)CCC4(C)C)o2)c(OC)c1"
observed = -5.24

[[record]]
compound = "O=C1NCN(c2ccccc2)C12CCN(CC1COc3ccccc3O1)CC2 (stereo not drawn)"
observed = -8.19

[[record]]
compound = "CC(C)(C)c1ccc(NC(=O)N2CCN(c3ncccc3Cl)CC2)cc1"
observed = -5.92

[[record]]
compound = "COc1cc([N+](=O)[O-])ccc1NC(=O)c1ccccc1O"
observed = -6.06

[[record]]
compound = "CCCCCCCCCCCCCCC[C@@H](O)[C@@H](N)COP(=O)(O)O"
observed = -5.95

[[record]]
compound = "COc1cc(OC2CCN(C(C)=O)CC2)ccc1C(=O)N1CCC(N2C(=O)OCc3ccccc32)CC1"
observed = -2.76

[[record]]
compound = "Cc1cc(C)c(S(=O)(=O)N(Cc2ccc(-c3cccc(S(C)(=O)=O)c3)cc2)Cc2ccc(C(F)(F)F)o2)c(C)c1"
observed = -2.84

[[record]]
compound = "CCN(Cc1ccc(Cl)cc1)c1ncc(C(=O)NCCCN2CCCC2=O)c(NC2CCCC2)n1"
observed = 8.58

[[record]]
compound = "O=C(c1ccc2c(ccn2-c2ccc(F)cc2)c1)N1CC(N2CCN(C(=O)c3nccs3)CC2)C1"
observed = 7.11

[[record]]
compound = "O=C(O)C[C@H]1CCc2c1[nH]c1ccc(OCc3ccc(C4CCCC4)c(C(F)(F)F)c3)cc21"
observed = -6.26

[[record]]
compound = "CCNC(=O)NS(=O)(=O)c1sc(CC(C)C)cc1-c1ccc(Cn2c(-c3ccccc3)nc(OC)c2C=O)cc1"
observed = 6.28

[[record]]
compound = "OCCn1cc(-c2cnc3nnn(Cc4ccc5ncccc5c4)c3n2)cn1"
observed = -1.44

[[record]]
compound = "COc1ccccc1N1CCN(CCCCNC(=O)c2ccc3ccccc3c2)CC1"
observed = -4.08

[[record]]
compound = "O=C(N[C@H]1CN2CCC1CC2)c1ccc(Cl)cc1"
observed = -1.13

[[record]]
compound = "CO[C@H]1/C=C/O[C@@]2(C)Oc3c(C)c(O)c4c(O)c(c(/C=N/N5CCN(C)CC5)c(O)c4c3C2=O)NC(=O)/C(C)=C\\C=C\\[C@H](C)[C@H](O)[C@@H](C)[C@@H](O)[C@@H](C)[C@H](OC(C)=O)[C@@H]1C"
observed = 20

[[record]]
compound = "CCCCC[C@H](O)/C=C/[C@@H]1[C@@H](C/C=C\\CCCC(=O)O)[C@@H](O)C[C@H]1O"
observed = -8.4

[[record]]
compound = "CCC1(C2=NCCN2)Cc2ccccc2O1 (stereo not drawn)"
observed = -0.713

[[record]]
compound = "C[C@@H](Cn1c(=O)[nH]/c(=N\\c2ccc(Oc3ccccn3)cc2)n(Cc2ccc(Cl)cc2)c1=O)C(=O)O"
observed = -3.28


# credit: ChEMBL document CHEMBL5665443
